Molecular target: human kallikrein 7 (hKallikrein7) (Homo sapiens, UniProt P49862)
Sequence (P49862 30-253): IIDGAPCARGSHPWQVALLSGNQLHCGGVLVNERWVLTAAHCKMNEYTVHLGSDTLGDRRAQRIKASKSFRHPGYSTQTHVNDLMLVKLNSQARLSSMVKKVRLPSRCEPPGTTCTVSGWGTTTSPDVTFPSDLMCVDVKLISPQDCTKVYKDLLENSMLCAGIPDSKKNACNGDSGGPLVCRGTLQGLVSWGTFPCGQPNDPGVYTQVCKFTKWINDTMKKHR
Readings of IC50 for the listed compounds
// return the numeric value with its unit appended

Consider the following illustrative entries.
CCC(C)[C@@H]1NC(=O)[C@H](Cc2ccc(O)cc2)N(C)C(=O)[C@H](C(C)CC)N2C(=O)C(CC[C@@H]2O)NC(=O)[C@H](CC(C)C)NC(=O)[C@H](NC(=O)[C@H](CCC(N)=O)NC(=O)C(C)C)[C@@H](C)OC1=O (stereo partly shown) :: 1 nM
CCC(C)C(=O)N[C@@H](CCC(N)=O)C(=O)NC1C(=O)N[C@@H](CC(C)C)C(=O)NC2CC[C@H](O)N(C2=O)[C@@H](C(C)CC)C(=O)N(C)[C@@H](Cc2ccc(O)cc2)C(=O)N[C@@H](C(C)CC)C(=O)O[C@@H]1C (stereo partly shown) :: 0.4 nM
CCC(C)C(=O)N[C@@H](CCC(N)=O)C(=O)N[C@H]1C(=O)N[C@@H](CC(C)C)C(=O)N[C@H]2CC=CN(C2=O)[C@@H](C(C)CC)C(=O)N(C)[C@@H](Cc2ccc(O)cc2)C(=O)N[C@@H](C(C)CC)C(=O)O[C@@H]1C (stereo partly shown) :: 5 nM

Consider now this further compound.
For reference, reported IC50 for CCC(C)[C@@H]1NC(=O)[C@H](Cc2ccc(O)cc2)N(C)C(=O)[C@H](C(C)CC)N2C=CC[C@H](NC(=O)[C@H](CC(C)C)NC(=O)[C@H](NC(=O)[C@H](CCC(N)=O)NC(=O)C(C)C)[C@@H](C)OC1=O)C2=O (stereo partly shown) stands at 6 nM

Recorded values, source patent US8415305B2.
